# assay-notes: protease stability score; higher = more stable; yeast display proteolysis, trypsin and chymotrypsin;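 also: log10 excess protease needed over predicted unfolded state with 0 meaning unfolded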
I'd appreciate it if you could supply protease stability score values for the items below.

DTEDLNRLANTMASAIHHNDPDKIVKMFDPNARARVGDKSYHGREDLRKMVNEWHRQADDIHIQQVQVHNGRAYINFVRNVNGVHADLTAIITIENGRAEKMTLTYRNPDDEKKVQG = 0.279

Required: protease stability score, one value per sequence below.
1. DEELLRNLEEVFKKNNFSTLANLADKDATLIVGDKVYKGKQQVRDWANELDERIDHVSIHSIDNQGDTMVARMVLNVDGVNAEFTLSVEISNGRVQVISLKVTDDEVKDQISKMES
2. DETDLEKFATIVQQNNPHEFKKLLPEDAKMTYGDKTVHGREEIQRILENLVKDVDRLRIKHYKISGDKIEIDLVVNVNGRNIRFSLRAKMHNGQIKFFEIEVRDDDVKHELEKMLS
3. DDQLSDQLDKARKQIEEGNFEQVREYVDPNVSVHVGDKSVHGREKYTHEILRKHQELRYKVEVTRVHVENGRLDVKAQETVNHNGRPESSRYVLDLNMHNGRLKHMTKSSDK
4. DEDEYAHQVAQELRKAMETGDSDRIARLFDENAELRVGDKVWHGRDQIRKYWHEWLRRADTVDVKIDEVDVEGDKARAHIRVRAEDNGRHQEFTVKMTLKNKNGRAKITSMHVS
5. DKDAQKKATEFLTAWEQGNESQLQKLMDPNAKVEIGDKVIDGREDWNRWIRERLKRMRFEIKSVDVQVHGDNVDINIDARVNHNGKPDRMTAKFVMRVHNGRIKSMTQHNDK

Marked response:
1: 0.953; 2: 0.069; 3: -0.321; 4: 1.57; 5: 1.29
